# PROCEDURE SUMMARY: Solubility screening of veldoreotide acetate (10 mg, incremental volumes of medium, USP definition)
# Format: physicochemical
# SETUP CONDITIONS: 0.1N HCl, 10 mg in 0.1N HCL; read-out: 1 ml Sparingly soluble (0.01 g/ml; 10 mg/ml)
PROPERTY MEASURED: solubility

Problem: Name the reported solubility value associated with the compound C[C@@H](O)[C@@H]1NC(=O)[C@H](CCCCN)NC(=O)[C@@H](Cc2c[nH]c3ccccc23)NC(=O)[C@H](Cc2c[nH]c3ccccc23)NC(=O)[C@H](Cc2ccccc2)NC(=O)CCCNC(=O)CCCN(CC(N)=O)C(=O)[C@H](Cc2ccccc2)NC1=O [Veldoreotide Acetate]
Result: > 10000 µg/mL

----------
# PROCEDURE SUMMARY: Solubility screening of veldoreotide acetate (10 mg, incremental volumes of medium, USP definition)
# Assay type: physicochemical
# SETUP CONDITIONS: Acetic acid 1% (glacial), 10 ml Slightly soluble (0.001 g/ml; 1 mg/ml), 10 mg in Acetic acid 1% (glacial)
PROPERTY MEASURED: solubility

Problem: Name the reported solubility value associated with the molecule C[C@@H](O)[C@@H]1NC(=O)[C@H](CCCCN)NC(=O)[C@@H](Cc2c[nH]c3ccccc23)NC(=O)[C@H](Cc2c[nH]c3ccccc23)NC(=O)[C@H](Cc2ccccc2)NC(=O)CCCNC(=O)CCCN(CC(N)=O)C(=O)[C@H](Cc2ccccc2)NC1=O [Veldoreotide Acetate]
Result: > 1000 µg/mL

----------
# PROCEDURE SUMMARY: Solubility of COR005 acetate in aqueous media with additives at 25° C.
# Format: physicochemical
# SETUP CONDITIONS: 0.45% NaCl with […] dextrose (isotonic), Isotonic 0.45NS (0.45% NaCl) 2.5D Dextrose […]; DEX:PEP 5:1; read-out: Solubility of COR005 Acetate (mg/ml) at 25° C.
PROPERTY MEASURED: solubility

Problem: Name the reported solubility value associated with the compound C[C@@H](O)[C@@H]1NC(=O)[C@H](CCCCN)NC(=O)[C@@H](Cc2c[nH]c3ccccc23)NC(=O)[C@H](Cc2c[nH]c3ccccc23)NC(=O)[C@H](Cc2ccccc2)NC(=O)CCCNC(=O)CCCN(CC(N)=O)C(=O)[C@H](Cc2ccccc2)NC1=O [Veldoreotide Acetate]
Result: 6 to 7 mg/mL

----------
# PROCEDURE SUMMARY: Solubility screening of veldoreotide acetate (10 mg, incremental volumes of medium, USP definition)
# Type: physicochemical
# SETUP CONDITIONS: 10% EtOH (95%) in olive oil (or cottonseed oil), 10 mg in 10% EtOH (95%) in olive oil (or cottonseed oil); read-out: 0.01 ml Very soluble (1 g/ml)
PROPERTY MEASURED: solubility

Problem: Name the reported solubility value associated with the molecule C[C@@H](O)[C@@H]1NC(=O)[C@H](CCCCN)NC(=O)[C@@H](Cc2c[nH]c3ccccc23)NC(=O)[C@H](Cc2c[nH]c3ccccc23)NC(=O)[C@H](Cc2ccccc2)NC(=O)CCCNC(=O)CCCN(CC(N)=O)C(=O)[C@H](Cc2ccccc2)NC1=O [Veldoreotide Acetate]
Result: < 1000 mg/mL

----------
# PROCEDURE SUMMARY: Solubility and surface activity in PBS under physiological conditions (37° C.)
# Format: physicochemical
# SETUP CONDITIONS: PBS, pH 7.4, PBS pH 7.4, 37° C., COR005 10 mg/ml, HPB:PEP 1:4
PROPERTY MEASURED: solubility (µg/mL)
Write down the numeric answer in µg/mL and omit the unit.

Problem: Name the reported solubility value associated with the compound C[C@@H](O)[C@@H]1NC(=O)[C@H](CCCCN)NC(=O)[C@@H](Cc2c[nH]c3ccccc23)NC(=O)[C@H](Cc2c[nH]c3ccccc23)NC(=O)[C@H](Cc2ccccc2)NC(=O)CCCNC(=O)CCCN(CC(N)=O)C(=O)[C@H](Cc2ccccc2)NC1=O [Veldoreotide]
Result: 3900
